Test: Metabolic stability in rat liver microsomes
Details: rat, microsomes, pH 7.4, CLint, rat liver microsomes, cofactor NADPH

INPUT_SMILES: O=c1ccc2ccc(O)cc2o1
microsomal CLint at 1 µM / µL/min/mg: 8.81

###

Assay: HEK293 cytotoxicity assay (Alamar Blue)
Assay type: cell-based
Conditions: human, HEK293 cells, HEK293, 72 h
Protocol: The HEK 293 cell line was obtained from the European Collection of Authenticated Cell Cultures (ECACC, cat. # 85120602, Salisbury, UK). […] The sensitivity of the cells to the compounds was detected using the vital dye Alamar Blue (Invitrogen, San Diego, CA, USA). […] After incubation with the tested bCSE inhibitors, 10 μL of the Alamar Blue reagent was added into each well, the cell culture plates were returned to the humidified incubator, and the fluorescence was read after 3 h. […]

COMPOUND: O=C(O)c1ccc2c(ccn2Cc2ccc3ccccc3c2)c1
UNITS: µM
CC50 at 72 h: 217
--
COMPOUND: O=C(O)c1cc2ccccc2n1Cc1ccc2ccccc2c1
UNITS: µM
CC50 at 72 h: 368
--
COMPOUND: O=C(O)c1cccn1Cc1cccc2ccccc12
UNITS: µM
CC50 at 72 h: 460
--
COMPOUND: O=C(O)c1ccc2ccn(Cc3ccc4ccccc4c3)c2c1
UNITS: µM
CC50 at 72 h: 528
--
COMPOUND: O=C(O)c1ccc2ccn(Cc3cccc4ccccc34)c2c1
UNITS: µM
CC50 at 72 h: 452
--
COMPOUND: O=C(O)c1cc2ccccc2n1Cc1cccc2ccccc12
UNITS: µM
CC50 at 72 h: 291
--
COMPOUND: COc1cccc2c1C(=O)c1c(O)c3c(c(O)c1C2=O)C[C@@](O)(C(=O)CO)C[C@@H]3O[C@H]1C[C@H](N)[C@H](O)[C@H](C)O1 [Doxorubicin, reference compound]
UNITS: µM
CC50 at 72 h: 1.3
--
COMPOUND: O=C(O)c1cccn1Cc1ccc2ccccc2c1
UNITS: µM
CC50 at 72 h: 848

Values compiled from paper PMC10671052.
